- MEASUREMENT TARGET: human IL-13 (source not stated for the assay) (human, UniProt P35225 35-146, limits assumed)
- Sequence (P35225 35-146 limits assumed): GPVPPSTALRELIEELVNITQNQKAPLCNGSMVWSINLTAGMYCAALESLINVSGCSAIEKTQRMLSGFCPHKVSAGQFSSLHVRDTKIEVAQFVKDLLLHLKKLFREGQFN
- TEST: cell-based or functional assay
READOUT NAME: IC50, IL-13 induced eotaxin release, n = 1 (nM)

BINDER	OBSERVED RESULT
mAb 602 (antibody, V domains shown) VH: EVQLVESGGGLVKPGGSLRLSCAASGFTFSNAWMSWVRQAPGKGLEWVGRIRSKIDGGTINYAAPVKGRFTISRDDSKNTLYLQMNSLKTEDTAVYYCATDQVGAYYGDYYGMDVWGQGTTVTVSS VL: SYELTQPPSVSVSPGQTARITCSGDALPEKYAYWYQQKSGQAPVLVIYEDTKRPSGIPERFSGSSSGTMATLTISGAQVEDEADYYCYSTDSSGNHGVFGGGTKLTVLG	0.08
